Values compiled from patent US10112951B2.

# measuredOn: PDE4D (Homo sapiens, UniProt Q08499)
# Construct: full-length human PDE4D (NP_006194.2); His (C); made in house; host or cells: Sf9 (baculovirus, pFastBac1)
# Sequence (Q08499 1-673 isoform Q08499-2): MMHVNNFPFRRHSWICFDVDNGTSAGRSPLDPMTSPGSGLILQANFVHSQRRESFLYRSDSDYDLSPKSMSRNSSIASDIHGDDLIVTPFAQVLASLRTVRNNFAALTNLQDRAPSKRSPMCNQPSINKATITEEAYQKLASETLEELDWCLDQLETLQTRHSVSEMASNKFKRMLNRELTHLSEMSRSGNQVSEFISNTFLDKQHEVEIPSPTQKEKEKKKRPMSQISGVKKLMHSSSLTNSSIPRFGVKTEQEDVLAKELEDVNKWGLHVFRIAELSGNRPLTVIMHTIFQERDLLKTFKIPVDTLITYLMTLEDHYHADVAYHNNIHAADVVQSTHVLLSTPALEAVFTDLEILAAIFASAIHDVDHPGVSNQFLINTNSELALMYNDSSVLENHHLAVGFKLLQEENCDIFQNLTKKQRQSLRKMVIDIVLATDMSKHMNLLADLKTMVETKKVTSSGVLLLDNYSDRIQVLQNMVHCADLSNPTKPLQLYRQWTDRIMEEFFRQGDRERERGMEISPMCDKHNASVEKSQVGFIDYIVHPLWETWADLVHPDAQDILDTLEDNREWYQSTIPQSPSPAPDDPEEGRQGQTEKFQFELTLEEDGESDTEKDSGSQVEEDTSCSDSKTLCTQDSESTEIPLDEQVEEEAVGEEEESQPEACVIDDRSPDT
# measurementDescription: PDE enzyme assay using [3H]cAMP as substrate, PDE4D
# Format: biochemical
# conditionParameters: [3H]cAMP 47 nM; enzyme 0.021 nM; read-out: IC50 (nM) of Example 1, PDE4D
valueKind: IC50 (nM)
Hi! Could you send only the number? It should be in nM, unit omitted.

GET /value?item= O=c1c2nnc(C3(C4CC4)CC3)n2c2c(n1CC1CC1)CCCC2 &field=IC50 returns 7060
